Assignment: determine reported pIC50 for the given compounds.
Subject of test: catalytic domain of human MMP-13 (Homo sapiens)
Construct: the catalytic domain of human MMP-13
Method: Inhibition of proteolysis of a thioester peptide substrate by MMP-13
Type: biochemical
pIC50: −log10 of the molar value. Structures can show the parent of a compound that is named as a salt.

INSERT INTO results (compound, measured_endpoint, measured) VALUES
  ('O=c1c2cc(C#CCc3ccccc3)ccc2ncn1Cc1cccc(Cl)c1', 'pIC50', '> 6.00'),
  ('O=c1c2cc(C#CCc3ccccc3)ccc2ncn1Cc1ccc(F)cc1', 'pIC50', '> 6.00'),
  ('COC(=O)c1ccc(Cn2cnc3ccc(C#CCc4ccccc4)cc3c2=O)cc1', 'pIC50', '> 6.00'),
  ('NS(=O)(=O)c1ccc(Cn2cnc3ccc(C#CCc4ccccc4)cc3c2=O)cc1', 'pIC50', '> 6.00'),
  ('O=C(O)c1ccc(Cn2cnc3ccc(C#CCN4CCOCC4)cc3c2=O)cc1 [Example 106, trifluoroacetic acid salt]', 'pIC50', '≤ 4.19');

Please give pIC50, item by item, for the list that follows.
1. O=C(O)c1ccc(Cn2cnc3ccc(C#CCN4CCCCC4)cc3c2=O)cc1 [Example 107, trifluoroacetic acid salt]
2. N#Cc1ccc(Cn2cnc3ccc(C#CCc4ccccc4)cc3c2=O)cc1

Marked response:
["≤ 4.19", "> 6.00"]
